Test system: EKVX NSCLC
EXPERIMENT NOTES: NCI-60 one-dose screen, 48 h (100 = growth as untreated, 0 = no growth, -100 = all killed)
CONDITION PARAMETERS: 10 µM unless noted
This is part of a sample that, as a whole, favours compounds with a hit. Of some 83,000 tested, about 20% had one in any assay.
READOUT KIND: growth (%)
One number for each entry, in %.

Known growth results, listed for orientation:
CN(C)CC/C=C1\c2ccccc2Sc2ccc(Cl)cc21 78.6
O=C(Nc1ccc(-n2cc(-c3ccncc3)c(-c3ccc(O)c(Cl)c3)n2)cc1)Nc1cc(C(F)(F)F)cc(C(F)(F)F)c1 44.6
C=C1C(=O)O[C@H]2[C@H]1CC/C(CNC(=O)/C1=C/CC[C@@]3(C)O[C@H]3[C@H]3OC(=O)C(=C)[C@@H]3CC1)=C\CC[C@@]1(C)O[C@@H]21 86.2
COc1ccc(Cl)cc1NC(=O)c1cc2c([nH]1)-c1nc(NC(=O)C(C)(C)C)sc1CC2 50.4

Hello, I would appreciate it if you could give growth for each entry below.
1. Nc1ncnc2c1c(-c1ccc(Oc3ccccc3)cc1)nn2C[C@H]1SSC[C@H]1O
2. CS(=O)(=O)Nc1cccc(-c2ccc3ncnc(Nc4cncc(Cl)c4)c3c2)c1
3. O=C1CN(CCN2CC(=O)NC(=O)C2)CC(=O)N1
4. O=C(Nc1ccc(-n2cc(-c3ccncc3)c(-c3ccc(O)c(Cl)c3)n2)cc1)c1ccc(Cl)c(C(F)(F)F)c1
5. COc1ccc(-c2ccc(NC(=O)Nc3cccc(C(F)(F)F)c3)c(C)n2)cc1

6.97
10.8
84.4
31.8
41.4

Hello, I would appreciate it if you could give growth for each entry below.
1. Cc1ccc(/C=C2/C(=O)Nc3cc(Cl)c(-c4csc(N)n4)cc32)cc1
2. COc1cc2c(cc1OC)-c1c(oc3c4c(ccc3c1=O)OC(C)(C)C=C4)CO2

1. 62.1
2. 57.7

Hello, I would appreciate it if you could give growth for each entry below.
1. CN(C)CCCOc1c(Br)cc(/C=C/C(=O)N(C)CCc2cc(Br)c(OCCCN(C)C)c(Br)c2)cc1Br
2. Cc1nccc2c3ccc(OCc4cn(-c5ccc(Br)cc5)nn4)cc3n(CCCc3ccccc3)c12
3. Nc1nccc2c1ccn2-c1ccc(NC(=O)Nc2cccc(C(F)(F)F)c2)cc1
4. Cc1[nH]c2ccc(F)cc2c1CCNC(=O)C1CCN(C(=O)c2ccc(-c3ccccc3)cc2)CC1
5. COC(=O)c1ccc(NC(N)=NCC(C)(C)COc2ccc(C(F)(F)F)cc2)nc1

1: 78.7; 2: 68.9; 3: 93.7; 4: 44.2; 5: 45.5

For the compound "NC(=S)NNC1CCCCC1" , what growth is on record? 89.9
